test system: panel of breast cancer cell lines; test: Compound A with targeted agents and chemotherapies, 72-hour in vitro proliferation assays; format: cell-based; conditions: CAMA-1 cell line; compound A × partner; 72-hour proliferation
Where a name gives a salt, the structure may show the parent alone.

| molecule | Best CI |
| --- | --- |
| CC(C)NC[C@@H](C(=O)N1CCN(c2ncnc3c2[C@H](C)C[C@H]3O)CC1)c1ccc(Cl)cc1 | 0.11 |
| CC1(C)CCC(c2ccc(Cl)cc2)=C(CN2CCN(c3ccc(C(=O)NS(=O)(=O)c4ccc(N[C@H](CCN5CCOCC5)CSc5ccccc5)c(S(=O)(=O)C(F)(F)F)c4)cc3)CC2)C1 | 0.14 |
| CCN1CCN(Cc2ccc(Nc3ncc(F)c(-c4cc(F)c5nc(C)n(C(C)C)c5c4)n3)nc2)CC1 | 0.32 |
| O=C(c1cc(Cc2n[nH]c(=O)c3ccccc23)ccc1F)N1CCN(C(=O)C2CC2)CC1 | 1.12 |
| CC/C(=C(\c1ccccc1)c1ccc(OCCN(C)C)cc1)c1ccccc1 [Tamoxifen Citrate] | 0.27 |
| CC(=O)O[C@H]1C(=O)[C@@]2(C)[C@H]([C@H](OC(=O)c3ccccc3)[C@]3(O)C[C@H](OC(=O)[C@H](O)[C@@H](NC(=O)c4ccccc4)c4ccccc4)C(C)=C1C3(C)C)[C@]1(OC(C)=O)CO[C@@H]1C[C@@H]2O [Paclitaxel, reference compound] | 0.05 |
